# Kd per record follows
- assayed target: TSLP, Q969D9
- experiment summary: Kd (SPR)
Give the quantity in nM, number only.

Some binders with known Kd results, for comparison:
binder: unnamed (protein) chain 1: QMQLVESGGGVVQPGRSLRLSCAASGFTFRTYGMHWVRQAPGKGLEWVAVIWYDGSNKHYADSVKGRFTITRDNSKNTLNLQMNSLRAEDTAVYYCARSPRYDWYWEAFDVWGQGTMVTVSS chain 2: SYVLTQPPSVSVAPGQTARITCGGNNLGSKSVHWYQQKPGQAPVLVVYDDSDRPSWIPERFSGSNSGNTATLTISRGEAGDEADYYCQVWDSSSDHVVFGGGTKLTVL
value observed: 240

binder: unnamed (protein) chain 1: QMQLVESGGGVVQPGRSLRLSCAASGFTFRTYGMHWVRQAPGKGLEWVAVIWYDGSNKHYADSVKGRFTITRDNSKNTLNLQMNSLRAEDTAVYYCARAPRYYWYWEAFDVWGQGTMVTVSS chain 2: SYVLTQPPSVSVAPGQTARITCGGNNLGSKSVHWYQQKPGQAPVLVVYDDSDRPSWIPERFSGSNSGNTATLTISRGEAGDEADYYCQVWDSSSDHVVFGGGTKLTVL
value observed: 23.6

Could you please provide reported Kd for unnamed (protein) chain 1: QMQLVESGGGVVQPGRSLRLSCAASGFTFRTYGMHWVRQAPGKGLEWVAVIWYDGSNKHYADSVKGRFTITRDNSKNTLNLQMNSLRAEDTAVYYCARAPRYDEAYEAFDVWGQGTMVTVSS chain 2: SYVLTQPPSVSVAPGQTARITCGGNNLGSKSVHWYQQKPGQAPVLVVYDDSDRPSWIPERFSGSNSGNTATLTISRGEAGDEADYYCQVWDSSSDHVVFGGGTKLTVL ? Thanks! 103
